Tested on: 616215-338-R-J1-PDC spheroid with HUVEC/MSC, viability;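 also: spheroids exposed to drugs for 7 days before readout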
Experiment: Anticancer human tumor 616215-338-R-J1-PDC patient-derived colon adenocarcinoma cell line growth inhibition [TAK]
Details: curve of first compound; second compound 30 µM
molecules and their reported IC50
endpoint_label: IC50

molecule="COC1CC2CCC(C)C(O)(O2)C(=O)C(=O)N2CCCCC2C(=O)OC(C(C)CC2CCC(OCCO)C(OC)C2)CC(=O)C(C)C=C(C)C(O)C(OC)C(=O)C(C)CC(C)C=CC=CC=C1C (configuration not stated) + CC(C)NCC(C(=O)N1CCN(c2ncnc3c2C(C)CC3O)CC1)c1ccc(Cl)cc1" endpoint_label=IC50 endpoint_result="< 0.316 nM"
molecule="CC(C)(C)c1nc(-c2cccc(NS(=O)(=O)c3c(F)cccc3F)c2F)c(-c2ccnc(N)n2)s1 + CC(C)NCC(C(=O)N1CCN(c2ncnc3c2C(C)CC3O)CC1)c1ccc(Cl)cc1" endpoint_label=IC50 endpoint_result="< 31.6 nM"
